# assay protocol: Volume of distribution in Beagles dog at a dose of 1 mg/kg given intravenously
# Format: ADME, organism-based, Canis lupus familiaris
# Parameters: dose 1 mg/kg, route intravenous
# reported conditions: beagle, in vivo, iv, read-out: Distribution
recorded metric: Vd (L)

>>> recorded_number("CCNC(=O)[C@@H](NC(=O)Cc1ccccc1)[C@@H]1N[C@@H](C(=O)NCCNC(=O)[C@@H]2N[C@@H]([C@H](NC(=O)Cc3ccccc3)C(=O)NCC)SC2(C)C)C(C)(C)S1")
50

* * *

Measured EC50, listed per entry.
# System: Human immunodeficiency virus 1
# assay protocol: Inhibitory effects on HIV-1 induced syncytium formation in C8166 cells
# Assay type: functional, organism-based
# reported conditions: Human immunodeficiency virus 1, C8166
recorded metric: EC50 (nM)

>>> recorded_number("CC1(C)S[C@H]([C@H](NC(=O)c2ccccc2-c2ccccc2)C(=O)NCc2ccccc2)N[C@H]1C(=O)NCCNC(=O)[C@@H]1N[C@@H]([C@H](NC(=O)c2ccccc2-c2ccccc2)C(=O)NCc2ccccc2)SC1(C)C")
130
>>> recorded_number("CCNC(=O)[C@@H](NC(=O)CCc1ccccc1)[C@@H]1N[C@@H](C(=O)NCCNC(=O)[C@@H]2N[C@@H]([C@H](NC(=O)CCc3ccccc3)C(=O)NCC)SC2(C)C)C(C)(C)S1")
60
>>> recorded_number("CN(C)c1ccc(CNC(=O)[C@@H](NC(=O)Cc2ccccc2)[C@@H]2N[C@@H](C(=O)NCCNC(=O)[C@@H]3N[C@@H]([C@H](NC(=O)Cc4ccccc4)C(=O)NCc4ccc(N(C)C)cc4)SC3(C)C)C(C)(C)S2)cc1")
20
>>> recorded_number("CC1(C)S[C@H]([C@H](NC(=O)Cc2ccccn2)C(=O)NCc2ccc(Cl)cc2Cl)N[C@H]1C(=O)NCCNC(=O)[C@@H]1N[C@@H]([C@H](NC(=O)Cc2ccccn2)C(=O)NCc2ccc(Cl)cc2Cl)SC1(C)C")
240

* * *

Each entry below carries its reported pIC50.
# tested system: Human immunodeficiency virus type 1 protease (Human immunodeficiency virus 1, UniProt Q72874)
pIC50: −log10 of the molar value.
recorded metric: pIC50

>>> recorded_number("CC1(C)S[C@H]([C@H](NC(=O)Cc2ccccn2)C(=O)NCc2ccc(Cl)cc2)N[C@H]1C(=O)NCCNC(=O)[C@@H]1N[C@@H]([C@H](NC(=O)Cc2ccccn2)C(=O)NCc2ccc(Cl)cc2)SC1(C)C")
8.12
>>> recorded_number("CC1(C)S[C@H]([C@H](NC(=O)Cc2ccccn2)C(=O)NCc2ccccc2)N[C@H]1C(=O)NCCNC(=O)[C@@H]1N[C@@H]([C@H](NC(=O)Cc2ccccn2)C(=O)NCc2ccccc2)SC1(C)C")
9.26
>>> recorded_number("CC1(C)S[C@H]([C@H](NC(=O)Cc2ccccc2)C(=O)NCC(F)(F)F)N[C@H]1C(=O)NCCNC(=O)[C@@H]1N[C@@H]([C@H](NC(=O)Cc2ccccc2)C(=O)NCC(F)(F)F)SC1(C)C")
8.36
>>> recorded_number("CCNC(=O)[C@@H](NC(=O)Cc1ccc2ccccc2c1)[C@@H]1N[C@@H](C(=O)NCCNC(=O)[C@@H]2N[C@@H]([C@H](NC(=O)Cc3ccc4ccccc4c3)C(=O)NCC)SC2(C)C)C(C)(C)S1")
6.09
>>> recorded_number("CN(C)c1ccc(CNC(=O)[C@@H](NC(=O)Cc2ccccc2)[C@@H]2N[C@@H](C(=O)NCCNC(=O)[C@@H]3N[C@@H]([C@H](NC(=O)Cc4ccccc4)C(=O)NCc4ccc(N(C)C)cc4)SC3(C)C)C(C)(C)S2)cc1")
7.33
>>> recorded_number("CC1(C)S[C@H]([C@H](NC(=O)Cc2ccccc2)C(=O)N(CCO)CCO)N[C@H]1C(=O)NCCNC(=O)[C@@H]1N[C@@H]([C@H](NC(=O)Cc2ccccc2)C(=O)N(CCO)CCO)SC1(C)C")
6.08
>>> recorded_number("CC1(C)S[C@H]([C@H](NC(=O)Cc2ccccn2)C(=O)NCc2ccc(Cl)cc2Cl)N[C@H]1C(=O)NCCNC(=O)[C@@H]1N[C@@H]([C@H](NC(=O)Cc2ccccn2)C(=O)NCc2ccc(Cl)cc2Cl)SC1(C)C")
7.85
>>> recorded_number("CCNC(=O)[C@@H](NC(=O)c1ccccc1Cc1ccccc1)[C@@H]1N[C@@H](C(=O)NCCNC(=O)[C@@H]2N[C@@H]([C@H](NC(=O)c3ccccc3Cc3ccccc3)C(=O)NCC)SC2(C)C)C(C)(C)S1")
7.14
